System: WT Max(13-93) synthetic (M65Nle)
Assay: PBM 8-mer E-score (E-score (rank enrichment, -0.5 to 0.5)); higher = stronger preferential binding
Whole data set: some 33,000 sequences, median “E-score (rank enrichment, -0.5 to 0.5)” near -0.0075, cut for the highest 2% near 0.23. Shown is part of a subset that was picked to be rich in the highest values.
Threshold check on PBM 8-mer E-score: at or above 0.1 gives met, strictly below gives not met.

• AAGATATC = not met
• CCGACGTA = not met
• AAGATACT = not met
• AAGATAAG = met
• AAAAGCAA = not met
• ACATAATA = met
• ATATTAAC = met
• ATAATACC = met
• CTATGTTA = met
• ATATAACG = met
• GTGTGTTA = met
• GCATAATA = met
• AAGATACA = met
• CTATAACA = met
• AATAAAAT = met
• GAGATAAC = met
• GGGTGTTA = not met
• ATATAATA = met
• AATAAACC = met
• ATAATACA = met
• CCGCTGAC = not met
• CGTTCAGC = not met
• ATAATATA = met
• AGAGACCG = not met
• GTGTATTA = met
• ATATGTTA = met
• AAGATAAC = met
• ATATAACA = met
• CTGTGTTA = not met
• AAGGAGGA = not met
• TTATTAAA = met
• GTATAATA = met
• AGGACGGG = not met
• ATGTGTGA = met
• ATATAACC = not met
• ATGGAGGC = not met
• ATGTGTTA = met
• GTATAACA = met

---

Tested on: WT Max(13-93) synthetic (M65Nle)
Assay: PBM 8-mer E-score (E-score (rank enrichment, -0.5 to 0.5)); higher = stronger preferential binding
Over roughly 33,000 sequences, “E-score (rank enrichment, -0.5 to 0.5)” has its median near -0.0075; the highest 2% begin near 0.23. Many of the other results were omitted from the sample, so the highest values are more common in it than they were.
Parameter measured: PBM 8-mer E-score

• CGTTGCCA = 0.0775
• AAGCGTAG = -0.0452
• TATATACA = 0.0403
• CATCTTCG = -0.0197
• CCTAAACG = -0.145
• GCGTGTAC = 0.125
• TGCTGTAA = 0.00145
• AAAATAGG = 0.031
• GATCTCGA = -0.159
• AGCCTGAC = -0.0941
• AAACCAGC = -0.182

---

This listing pairs sequences with measured PBM 8-mer E-score.
Tested on: WT Max(13-93) synthetic (M65Nle)
Assay: PBM 8-mer E-score (E-score (rank enrichment, -0.5 to 0.5)); higher = stronger preferential binding
The full ranking holds about 33,000 sequences; the median of “E-score (rank enrichment, -0.5 to 0.5)” is about -0.0075, and the highest 2% start at about 0.23. The entries come from a sample that favours the highest values as a whole.
Parameter measured: PBM 8-mer E-score

• AATGACTG = 0.102
• ATACACGA = 0.194
• AACACATG = 0.368
• CATGCTCG = 0.188
• CATTCGCG = 0.0727
• AAATGACA = 0.248
• AACACATA = 0.263
• AAAGGATG = 0.0585
• TAATGACA = 0.256
• GTACACGA = 0.246
• ATAACCCG = -0.0972
• AGCCTAGG = -0.0541
• CATGCTCA = 0.281
• CGTATCCC = -0.27
• ACACACGC = 0.208
• TGTTATAA = 0.255
• GAATGACA = 0.0853
• CCTTCGAA = 0.0583
• CGCAAGCA = 0.115
• ACACACAT = 0.208
• CATGCTTA = 0.246
• ACACACGG = -0.09
• CTACACGA = -0.00142
• AAAACATT = 0.147
• CCCTATCA = 0.0698
• CCGACCCG = -0.101
• GCACGACA = -0.0608
• ACACACGA = 0.252
• CGATCCAG = -0.318
• AAATGACG = 0.0648
• GGCACATA = -0.00374
• CGTTATAA = 0.0918
• AAATGACC = 0.0445
• CATAATAA = 0.114
• AACACATC = -0.0183
• ACACACGT = 0.295
• ACGTTTTC = 0.116
• GCACACGC = 0.284
• GCGTCTCA = -0.13
• AACACATT = 0.13

---

Tested on: WT Max(13-93) synthetic (M65Nle)
Assay: PBM 8-mer E-score (E-score (rank enrichment, -0.5 to 0.5)); higher = stronger preferential binding
The full ranking holds about 33,000 sequences; the median of “E-score (rank enrichment, -0.5 to 0.5)” is about -0.0075, and the highest 2% start at about 0.23. The full list was thinned out, with the highest values kept by preference.
Rule: PBM 8-mer E-score under 0.2 gives No, otherwise Yes.

- TATGAATA: No
- CTCAAAGC: No
- ATGCTTAA: No
- ATGGCTAG: No
- TCCTTTCA: No
- ATATTATA: Yes
- GCGCTACA: No
- GATGAATA: Yes
- AGATTACC: No
- GTATTAGA: Yes
- TAAGCTTA: No
- ATTATATC: Yes
- AGCACAAT: No
- AGAATAAG: No
- ATATTACC: Yes
- AATGAATC: No
- AATGAATT: No
- AAATTACG: No
- ATTATATA: No
- CGTAAGCC: No
- ATAGCGGC: No
- AATGAATG: Yes
- AGAATAAA: Yes
- ATCAATTG: Yes
- CGCCTCGA: No
- TATTAGCA: No
- ATTATATG: No
- GGAATAAA: No
- ATAGCAGG: No
- AAACTACA: Yes
- AACGAAGA: No
- GACATGTA: Yes
- AACATGTA: Yes
- CGAATAAA: No
- GATGAATC: No
- CGCTGGCC: No
- ATATTAGA: No

---

System: WT Max(13-93) synthetic (M65Nle)
Assay: PBM 8-mer E-score (E-score (rank enrichment, -0.5 to 0.5)); higher = stronger preferential binding
In all, about 33,000 sequences were measured (“E-score (rank enrichment, -0.5 to 0.5)”: median about -0.0075, highest 2% from about 0.23 on). The list comes from a sample in which the highest values are over-represented; it also holds close analogues and randomly drawn sequences.
Documented PBM 8-mer E-score across a set of sequences
Parameter measured: PBM 8-mer E-score

* TCTAACAA | -0.0242
* AATAACAC | 0.0775
* AATTAATG | 0.166
* GTAAAACA | 0.142
* AGTTGTGG | 0.00744
* CGCAGGCA | -0.131
* AATAACAA | 0.264
* AAGTTGGG | -0.0303
* AAAAAACA | 0.158
* AAATGTTG | -0.0126
* GATGTGGC | -0.117
* AAATGTTA | 0.127
* CCATGTTA | 0.103
* CATCGAGA | -0.0265
* ATATAAAA | 0.257
* ACCTATTG | 0.157
* AATAACAG | 0.17
* AGGCCCAA | -0.118
* CTAAAACA | -0.074
* ATTATCCC | 0.073
* AATGTGGA | 0.0921
* GATGGCAA | 0.158
* CATGGGGG | 0.0813
* ATAGTCAG | 0.0518
* CCGTTCAC | -0.15
* TAAGAACA | 0.243
* ATATTGAA | 0.114
* CTGTCTGA | 0.00168
* CAAATACG | 0.138
* AGGGGTCC | -0.221
* CCATGTTC | -0.00628
* CAGACACG | -0.0764
* ATCGTCTG | -0.0768
* TAATCGAA | 0.0693
* AACGATCC | -0.124
* AGAAGTAG | 0.0117
* CACATTTA | 0.143
* CGTAACAA | 0.136
* CATTAGTA | 0.0683
* CTACCTAA | 0.0741
* GACGACAA | 0.0432
* ATAAATAA | 0.157
* AAATCCAC | 0.116
* TTAAATAA | 0.12
* CCGTTAGC | -0.112
* GAAGAACA | 0.209
* ACATGTTA | 0.267
* AATTAATT | 0.262
* AGCGCCTC | -0.185
* AAATCCAT | 0.24
* GAATGTTA | 0.158
* AATAACAT | 0.181
* CATGTGGG | 0.257
* CATGTGGA | 0.324
* GACAACGC | 0.1
* ATGACACA | 0.236
* CCGAAAGA | -0.0212
* CTCGGCTC | -0.235
* ATAAATAC | 0.295
* AATGTGGC | 0.0312
* AGATGTTG | -0.133
* CCTAACAA | 0.11
* AAGCGGCC | -0.276
* CGCCAACC | -0.101
* AATTAATC | 0.0672
* CCTCGACC | -0.128
* ATGACACC | 0.159
* ATAAATAG | 0.18
* CCCTATTC | 0.0618
* AAGACACG | 0.246
* CGGTGACA | -0.162
* GCCCCGAC | -0.0997
* CTTCGCTC | -0.143
* ATGACAGG | 0.0387
* AAGGCATG | 0.207
* CCAGAGTC | -0.155
* ACGACATG | 0.0526
* AGAGCTAG | -0.0196
* AAGACACA | 0.0963
* ATTTTCGG | 0.129
* TATAACAA | 0.24
* GGCGGATA | -0.183
* CATAACAC | 0.236
* GACATTAC | 0.0651
* CCACGTGA | 0.483
* AGGAGCAA | -0.034
